target-or-test-system: KRAS G12V (Homo sapiens (Human), UniProt P01116, G12V)
Sequence (P01116-2 other isoform, or with tags, fused parts or gaps G12V): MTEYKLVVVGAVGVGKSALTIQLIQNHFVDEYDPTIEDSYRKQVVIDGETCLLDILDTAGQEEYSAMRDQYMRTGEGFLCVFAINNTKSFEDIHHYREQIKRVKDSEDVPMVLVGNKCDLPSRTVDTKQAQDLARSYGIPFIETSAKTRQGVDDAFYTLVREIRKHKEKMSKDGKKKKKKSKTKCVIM
run-description: KRAS G12V degradation in SW620 cells (Western blot, DC50)
Format: cell-based
settings: 24 hours
Reported DC50 values are given for each entry in this list.

Use the examples below as a reference point.
{"compound": "CCc1c(F)ccc2cc(O)cc(-c3ncc4c(N5CCOCC(C)(O)C5)nc(OCC5(CN6CCC(CN7CCN(c8ccc9c(c8)CN([C@H]8CCC(=O)NC8=O)C9=O)CC7)CC6)CC5)nc4c3F)c12 (some centres unmarked) [Compound 92]", "readout-value": "1 to 10 nM"}
{"compound": "CCc1c(F)ccc2cc(O)cc(-c3ncc4c(N5CCC[C@]6(CCO6)C5)nc(OCC5(CN6CCC7(CC6)CC(N6CCN(c8ccc9c(c8)CN([C@H]8CCC(=O)NC8=O)C9=O)CC6)C7)CC5)nc4c3F)c12 [Compound 218]", "readout-value": "< 1 nM"}
{"compound": "C#Cc1c(F)ccc2cc(N)cc(-c3ncc4c(N5CCC[C@@](C)(O)C5)nc(OCC5(CN6CCC(CN7CCN(c8ccc9c(c8)CN([C@H]8CCC(=O)NC8=O)C9=O)CC7)CC6)CC5)nc4c3F)c12 [Compound 118]", "readout-value": "> 100 nM"}
{"compound": "CCc1cccc2cc(O)cc(-c3ncc4c(N5CCC[C@@](C)(O)C5)nc(OCC5(CN6CC[C@@H](CN7CC8(CCN(c9ccc%10c(c9)CN(C9CCC(=O)NC9=O)C%10=O)CC8)C7)C6)CC5)nc4c3F)c12 (some centres unmarked) [Compound 18]", "readout-value": "> 100 nM"}

We now examine a further compound.
So what DC50 did CCc1c(F)ccc2cc(O)cc(-c3ncc4c(N5C[C@@H]6C[C@H](C5)[C@H](O)C6)nc(OCC5(CN6CCC7(CC6)CC(CN6CCN(c8ccc9c(c8)CN([C@H]8CCC(=O)NC8=O)C9=O)CC6)C7)CC5)nc4c3F)c12 [Compound 90] get with KRAS G12V (Homo sapiens (Human), UniProt P01116, G12V)?
1 to 10 nM

====

target-or-test-system: KRAS-G12V/RAF1 (Homo sapiens (Human), UniProt P01116, G12V)
run-description: KRAS/RAF1 binding inhibition assay (AlphaScreen)
Description: Binding affinity against GTP-bound KRAS of the compounds disclosed herein was measured by monitoring the interaction of guanosine 5′-[β,γ-imido]triphosphate-bound (GppNHp-bound) KRAS with the RBD domain of RAF1 in the presence of the test compound. […] The IC50 values were determined by nonlinear regression of plots of [inhibitor] vs. percentage of inhibition with variable slope, analyzed using GraphPad Prism (Version 9).
pIC50: −log10 of the molar value.
experimental-readout: pIC50

Worked examples, 8 molecules total:
{"molecule": "CCc1c(F)ccc2cc(O)cc(-c3ncc4c(N5CCC[C@@](C)(O)C5)nc(OCC5(CN6CC(N7CCC8(CCN(c9ccc%10c(c9)CN(C9CCC(=O)NC9=O)C%10=O)CC8)CC7)C6)CC5)nc4c3F)c12 (stereo partly drawn)", "pIC50": "6.70 to 7.70"}
{"molecule": "CCc1c(F)ccc2cc(O)cc(-c3ncc4c(N5CCC[C@@](C)(O)C5)nc(OCC5(CN6CCC7(CC6)CC(C6CCN(c8ccc9c(c8)CN(C8CCC(=O)NC8=O)C9=O)CC6)C7)CC5)nc4c3F)c12 (stereo partly drawn)", "pIC50": "< 6.70"}
{"molecule": "CCc1cccc2cc(O)cc(-c3ncc4c(N5CCC[C@@](C)(O)C5)nc(OCC5(CN6CC7(CCC(N8CCN(c9ccc%10c(c9)CN([C@H]9CCC(=O)NC9=O)C%10=O)CC8)CC7)C6)CC5)nc4c3F)c12 [Compound 142]", "pIC50": "6.70 to 7.70"}
{"molecule": "CCc1c(F)ccc2cc(O)cc(-c3ncc4c(N5CCC=CCC5)nc(OCC5(CN6CCC7(CC6)CC(CN6CCN(c8ccc9c(c8)CN([C@H]8CCC(=O)NC8=O)C9=O)CC6)C7)CC5)nc4c3F)c12", "pIC50": "< 6.70"}
{"molecule": "CCc1c(F)ccc2cc(O)cc(-c3ncc4c(N5CCC[C@@](C)(O)C5)nc(OCC5(CN6CCN(CC7CCN(c8ccc9c(c8)CN([C@H]8CCC(=O)NC8=O)C9=O)CC7)CC6)CC5)nc4c3F)c12", "pIC50": "6.70 to 7.70"}
{"molecule": "CCc1c(F)ccc2cc(O)cc(-c3ncc4c(N5CCC[C@@](C)(O)C5)nc(OCC5(CN6CCC7(CCC(N8CCN(c9ccc%10c(c9)CN([C@H]9CCC(=O)NC9=O)C%10=O)CC8)CC7)CC6)CC5)nc4c3F)c12", "pIC50": "> 7.70"}
{"molecule": "CCc1c(F)ccc2cc(O)cc(-c3ncc4c(N5CCC[C@@](C)(O)C5)nc(OCC5(CN6CCC(N7CC8(CCN(c9cc(F)c(C%10CCC(=O)NC%10=O)c(F)c9)CC8)C7)CC6)CC5)nc4c3F)c12 (stereo partly drawn)", "pIC50": "> 7.70"}
{"molecule": "CCc1cccc2cc(O)cc(-c3ncc4c(N5CCC[C@@](C)(O)C5)nc(OCC5(CN6CCC7(CC6)CC(CN6CCN(c8ccc9c(c8)C(=O)N(C8CCC(=O)NC8=O)C9=O)CC6)C7)CC5)nc4c3F)c12 (stereo partly drawn)", "pIC50": "6.70 to 7.70"}

What value of pIC50 has been recorded for this entry: CCc1cccc2cc(O)cc(-c3ncc4c(N5CCC[C@@](C)(O)C5)nc(OCC5(CN6CCC(F)(CN7CCN(c8ccc9c(c8)CN([C@H]8CCC(=O)NC8=O)C9=O)CC7)CC6)CC5)nc4c3F)c12
6.70 to 7.70
